tested on: MS2 coat protein; experiment: apparent KD of MS2 coat protein; designed switch direction (-1 OFF switch, 1 ON switch): -1; higher = weaker reporter binding; conditions: Eterna round: R95; input ligand: microRNA oligo, concentration not stated
READOUT: apparent KD of MS2 coat protein (µM)

SEQUENCE	TESTED_ON	TEST_VALUE
UGGUAACAUGAGGAUCACCCAUGUCAGGAUAUCAGUAAGAAUAGAGGAGAGUAGAAGAUGAGAAGGGACUAUAU [Excluse me! 8 - Jieux - Exclusion 1] (puzzle: Exclusion 1)	MS2 coat protein	0.0334
AAGAAACAUGAGGAUCACCCAUGUGAGGAUAUGAGGAAGAAAAGAAAAGAAAGAAGAUUCAGAAGGCACAAAGG [salish99-ex1_r3_058] (puzzle: Exclusion 1)	MS2 coat protein	0.0351
AAGAAUUUAUAGGAUAUCGAAAGUAUAAUUUAACGAGAAGGAUGAACAUGAGGAUCACCCAUGUGGUAUCAUGG [JL-ex6-3.09] (puzzle: Exclusion 6)	MS2 coat protein	0.232
UCGGCGCGAGGAUAUACGUUUGCUUUUUAGGAUCGUGGCGUACAUGAGGAUCACCCAUGUAGAAGGCGCGCCGC [Apr-15 SS2-28] (puzzle: Exclusion 2)	MS2 coat protein	0.0124
UUUUUACGAGGAUAUCGUUUUUUUCACAUGAGGAUCACCCAUGUUGUUUAUGUUGCGUUGCGAGAAGGCGUUUGUU [JR_E5_Sub063] (puzzle: Exclusion 5)	MS2 coat protein	0.0242
GAAAAGGUAGGAUAUACGAAAAAAAAGGGUAGAAAAAAAACACAUGAGGAUCACCCAUGUAGAAGGACCAAAAC [salish99_ex2_r3_052] (puzzle: Exclusion 2)	MS2 coat protein	0.0353
GAGAAGUGAGGAUAUGCGAUAAGGAUGAAAGGAAGGAAUGAGUAGAAGGCACAUGAGGAUCACCCAUGUAGAGU [JR_Exclu4_Sub080] (puzzle: Exclusion 4)	MS2 coat protein	0.0213
ACAAGCUCUUUGCAACUUAGUUUUGUUGCUUCGUAGGUAACAUGAGGAUCACCCAUGUAAGAGUGAUGUCGUCUUAU [JR_SV3TOV2_Sub085] (puzzle: Sensor v3, turn-off variant 2)	MS2 coat protein	0.0527
ACCCAACAUGAGGAUCACCCAUGUCAGGAUAUCCAUCAAAAGCACGAAAGGCGAGGAUGGAGAAGGGACAGAGG [ChP 04-04-2015 #2] (puzzle: Exclusion 1)	MS2 coat protein	0.178
CAUACAGUAGUCAGGAUAUUGCAACACACACGGAACGAGAAGGGACAUGAGGAUCACCCAUGUAUACUGUAAAG [EX-4 Malc #5] (puzzle: Brourd's mod of Exclusion 4)	MS2 coat protein	0.021
AUUUUGUCAGGAUAUGAGUAGUAGGACGAAAGUGUUAUUAUUUAGAAGGGACAUGAGGAUCACCCAUGUUUCUC [Bring Us a Shrubbery-02] (puzzle: Exclusion 4)	MS2 coat protein	0.0122
CGAAGUAGAAACCGAUCCUACAUGAGGAUCACCCAUGUAGCAAGACGUGCACGCGAAGCUCGUCAGACUACCAGAAC [salish99_TOv1_r3_013] (puzzle: Sensor v3, turn-off variant 1)	MS2 coat protein	0.332
AAAAGUUUGGAGGAUAUCCAUCCAAACGGAUAAGGAGAAGGCCGGACAUGAGGAUCACCCAUGUGAUUAGGUUA [Isradiri] (puzzle: Exclusion 6)	MS2 coat protein	0.0134
CUUUCGUGAGGAUAUCAGUAGUAAAUAAAUAAAAUUACUACUGAGAAGGCACAUGAGGAUCACCCAUGUUCCUC [salish99_ex3_r3_096] (puzzle: Exclusion 4)	MS2 coat protein	0.0235
CUUUCUUGCAAGGAUAUGCAAUUUAUUAUUUAUGCAGAAGGUGCUACAUGAGGAUCACCCAUGUUUCUGGGUUU [JR_E6_Sub045] (puzzle: Exclusion 6)	MS2 coat protein	0.124
UUUAAUUUUUUUUUUUUACAAGCUUUUUGCUCGUCUUAUACAUGAGGAUCACCCAUGUGGGUGGAGAGUAAAUUAUC [JMF 60] (puzzle: Sensor v3, turn-off variant 2)	MS2 coat protein	0.0471
CGUGUGCAGUAGGAUAUCCAAAUCCUGUGGAUAGGAGAAGGACUGACAUGAGGAUCACCCAUGUGGGUAAAGAC [Velaxediza] (puzzle: Exclusion 6)	MS2 coat protein	0.0637
AAUGAUGAUGUGAGGAUAUACAUAGUUAGACCGUAGUAGAAGGCACAUGAGGAUCACCCAUGUAGAUGUUAGGU [JR_BME4_Sub003] (puzzle: Brourd's mod of Exclusion 4)	MS2 coat protein	0.0129
AAAGCGUGAGGAUAUGAGGCGCCGGGCCGGUUGGUGCGGAUUCAGAAGGCACAUGAGGAUCACCCAUGUAGGAA [Excls4-III] (puzzle: Exclusion 4)	MS2 coat protein	0.0229
UUUUAACAUGAGGAUCACCCAUGUGAGGAUAUCGAAAUUUAUAUUUAUAUUUAUAUUUCGAGAAGGCACAUUUU [JMF 97] (puzzle: Exclusion 1)	MS2 coat protein	0.131
CUUUUGUGAGGAUAUCAGUGGUAAAACAAUAGUAUUACUACUGAGAAGGCACAUGAGGAUCACCCAUGUUCCUC [Mat - Exclusion 4 - Mod of Omei - D85] (puzzle: Exclusion 4)	MS2 coat protein	0.0427
